- TARGET_UNDER_TEST: T1, IR485 construct of human insulin receptor (human, UniProt P06213 28-512)
- T1 construct: The tag was not removed for ITC; Expressed in Lec8 mutant CHO cells; also called insulin mini-receptor IR485; first three domains of IR (L1-CR-L2)
- T1 chain: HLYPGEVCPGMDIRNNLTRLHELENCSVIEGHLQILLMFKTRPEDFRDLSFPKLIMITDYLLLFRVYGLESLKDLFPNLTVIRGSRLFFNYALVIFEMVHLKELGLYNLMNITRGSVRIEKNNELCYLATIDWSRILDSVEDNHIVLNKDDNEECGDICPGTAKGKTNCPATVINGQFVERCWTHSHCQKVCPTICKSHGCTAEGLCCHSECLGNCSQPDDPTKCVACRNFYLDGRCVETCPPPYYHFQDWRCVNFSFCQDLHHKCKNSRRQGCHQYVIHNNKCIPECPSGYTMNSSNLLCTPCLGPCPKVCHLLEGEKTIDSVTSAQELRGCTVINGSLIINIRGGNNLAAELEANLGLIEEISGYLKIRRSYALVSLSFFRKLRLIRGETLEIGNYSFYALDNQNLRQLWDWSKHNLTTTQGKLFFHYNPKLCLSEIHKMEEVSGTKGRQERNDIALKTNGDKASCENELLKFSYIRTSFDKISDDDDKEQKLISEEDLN
- ASSAY_SUMMARY: ITC, about 25 °C, peptide titrated into IR485
- Protocol: The insulin mini-receptor IR485 construct was produced and purified as previously described (Lou et al., 2006), omitting the final ion-exchange chromatography step. Isothermal titration calorimetry (ITC) experiments were performed using a VP-ITC isothermal titration calorimeter (MicroCal Inc., USA) with the calorimeter cell held at about 25° C. […]
Ends that are not written are not given here. * marks the point of attachment. Biotin = O=C1N[C@H]2[C@H](CS[C@H]2CCCCC(=O)*)N1
Entries annotated with measured ΔG°

Below are worked cases with known answers.
binder="Biotin-ESSFRKYFEDYLHNVVFVPRPS [N-terminally biotinylated IR αCT peptide 698-719, T704Y]" quantity_kind=ΔG° recorded_value="-8.37 kcal/mol"
binder="Biotin-ESSFYKWFEDYLHNVVFVPRPS [N-terminally biotinylated IR αCT peptide 698-719, R702Y/T704W]" quantity_kind=ΔG° recorded_value="-10.6 kcal/mol"
binder="Biotin-ESSFWKTFEDYLHNVVFVPRPS [N-terminally biotinylated IR αCT peptide 698-719, R702W]" quantity_kind=ΔG° recorded_value="-8.89 kcal/mol"
binder="Biotin-ESSFRKTFEDYLHNVVFVPRPS (Genscript, >75% purity; also called wt; native peptide) [N-terminally biotinylated IR αCT peptide 698-719, wild type]" quantity_kind=ΔG° recorded_value="-8.01 kcal/mol"
binder="Biotin-ESSFRKWFEDYLHNVVFVPRPS [N-terminally biotinylated IR αCT peptide 698-719, T704W]" quantity_kind=ΔG° recorded_value="-9.13 kcal/mol"

Here's the next entry for you.
## Task Entry Biotin-ESSFYKTFEDYLHNVVFVPRPS [N-terminally biotinylated IR αCT peptide 698-719, R702Y] : reported ΔG° = ?
## Result -9 kcal/mol

Data origin, for the record: patent US20140154817A1
